This collection of values is drawn from the supplement of paper PMC10567573.

B1: INTS3 (parent)
chain: FSDDEEDLNSKGKKREFRFHPIKE

variants of: B1; experiment: protein stability index of a GFP-peptide fusion (GPS, HEK-293T) (PSI 1-6); higher = more stable; conditions: c terminus: a fixed tail appended;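 note: lentivirally expressed fusions sorted by FACS into six bins by GFP to DsRed ratio, PSI derived from sequencing read proportions per bin multiplied by bin number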
Examples of variants with documented protein stability index follow.
// print number alone

The following variants have reported results that may help.
FSDDEEDLNPKGKKREFRFHPIKE; 2.63
FSDDEEDLNSKGKKREFLFHPIKE; 4.57
FSDDEEDLNHKGKKREFRFHPIKE; 2.64
FSDDEMDLNSKGKKREFRFHPIKE; 2.18

Prompt: State the recorded protein stability index for this entry: FSDDEEDLNSKGKKWEFRFHPIKE
Completion: 2.42

Prompt: State the recorded protein stability index for this entry: FSDDNEDLNSKGKKREFRFHPIKE
Completion: 2.39

Prompt: State the recorded protein stability index for this entry: FSDDEEDLNSKGKKREFRFHPRKE
Completion: 3

Prompt: State the recorded protein stability index for this entry: FSDDEERLNSKGKKREFRFHPIKE
Completion: 1.92

Prompt: State the recorded protein stability index for this entry: FSCDEEDLNSKGKKREFRFHPIKE
Completion: 2.42

Prompt: State the recorded protein stability index for this entry: FSDDEEDLNSYGKKREFRFHPIKE
Completion: 3.29
